# Assay Name: In vitro cytotoxicity assay (XTT), Caco-2
# Condition Label: human, Caco-2, CaCo-2 CC50, 48 h, 0–500 µM, XTT
Property: CC50 at 48 h (µM)
The response must be a number in µM with no trailing unit.

Please review the entries below; each comes with its answer.
Cc1ncc([N+](=O)[O-])n1CCOC(=O)Nc1ccc(Cl)cc1	523
Cc1ncc([N+](=O)[O-])n1CCOC(=O)Nc1ccc(F)cc1	510
Cc1ncc([N+](=O)[O-])n1CCOC(=O)NC1CCCCC1	650

Attention now shifts to the item below.
# input For the compound Cc1ncc([N+](=O)[O-])n1CCOC(=O)Nc1ccccc1 , what CC50 at 48 h is on record?
# output 560

###

# Test system: T. vaginalis trophozoites (metabolic gene transcripts)
# Assay Name: Relative gene expression of T. vaginalis in presence of compounds (RT-qPCR, 2^-ΔΔCt, PK reference gene)
# Type: cell-based, Trichomonas vaginalis
# Condition Label: 24 h at IC50 concentration
Property: Overexpression of PFOR (fold)
The response must be a number in fold with no trailing unit.

Cc1ncc([N+](=O)[O-])n1CCOC(=O)NC1CCCCC1	11
Cc1ncc([N+](=O)[O-])n1CCOC(=O)Nc1ccccc1	7.5
Cc1ncc([N+](=O)[O-])n1CCOC(=O)Nc1ccc([N+](=O)[O-])cc1	2.5

Attention now shifts to the item below.
# input For the compound Cc1ncc([N+](=O)[O-])n1CCOC(=O)Nc1ccc(Cl)cc1 , what Overexpression of PFOR is on record?
# output 7.5

###

# Test system: T. vaginalis trophozoites (metabolic gene transcripts)
# Assay Name: Relative gene expression of T. vaginalis in presence of compounds (RT-qPCR, 2^-ΔΔCt, PK reference gene)
# Type: cell-based, Trichomonas vaginalis
# Condition Label: 24 h at IC50 concentration
Property: Effect on ALDO expression

Cc1ncc([N+](=O)[O-])n1CCOC(=O)Nc1ccc(Cl)cc1 [AGR-3]	reduced
Cc1ncc([N+](=O)[O-])n1CCOC(=O)Nc1ccccc1 [AGR-2]	reduced
Cc1ncc([N+](=O)[O-])n1CCOC(=O)Nc1ccc(F)cc1 [AGR-4]	reduced

###

# System: CaCo-2 cells
# Assay Name: In vitro cytotoxicity assay (XTT), Caco-2
# Condition Label: CC50 CaCo-2 / IC50 trophozoites
Property: CaCo-2 SI (CC50/IC50)
Please reply with the value in numeric form only.

Cc1ncc([N+](=O)[O-])n1CCOC(=O)Nc1ccc([N+](=O)[O-])cc1	400
Cc1ncc([N+](=O)[O-])n1CCOC(=O)NC1CCCCC1	970.0
Cc1ncc([N+](=O)[O-])n1CCOC(=O)Nc1ccc(Cl)cc1	817.1
CC(=O)Oc1ccccc1C(=O)Nc1ncc([N+](=O)[O-])s1 [NTZ, nitazoxanide, reference compound]	87.6

Attention now shifts to the item below.
# input Recall the recorded CaCo-2 SI (CC50/IC50) for Cc1ncc([N+](=O)[O-])n1CCOC(=O)Nc1ccc(F)cc1 with CaCo-2 cells and state it.
# output 531.2

###

# Test system: HT29 cells
# Assay Name: In vitro cytotoxicity assay (XTT), HT29
# Condition Label: CC50 HT29 / IC50 trophozoites
Property: HT29 SI (CC50/IC50)
Please reply with the value in numeric form only.

Cc1ncc([N+](=O)[O-])n1CCOC(=O)Nc1ccc([N+](=O)[O-])cc1	386

# input For the molecule Cc1ncc([N+](=O)[O-])n1CCOC(=O)NC1CCCCC1 , what HT29 SI (CC50/IC50) is on record?
# output 794

# input Would you mind doing Cc1ncc([N+](=O)[O-])n1CCOC(=O)Nc1ccc(F)cc1 as well?
# output 617

# input Would you mind doing CC(=O)Oc1ccccc1C(=O)Nc1ncc([N+](=O)[O-])s1 [NTZ, nitazoxanide, reference compound] as well?
# output 95.7
